Would you mind telling me the reported TGI of each entry?
tested on: T-47D breast; experiment: NCI tumour cell line growth inhibition, 48 h

TGI recorded for this molecule, CC1=NNC(=O)C1C1C(=O)NN=C(c2c[nH]c3ccccc23)C1Br (stereo not drawn) , is > 100 µM

Recorded result, Cc1ccc(Nc2nc3[nH]ccc3c(=O)[nH]2)cc1 , TGI: > 100 µM

Entry under test: OC1[C@@H]2[C@@H](O)CCCN2C[C@@H](O)[C@H]1O (stereo partly drawn) . Its TGI was > 100 µM

In plain terms, CNC(=S)Nc1ccc(OC)c2ccccc12 has a documented TGI of > 10 µM

Looking up O=C1c2cccc([N+](=O)[O-])c2C(=O)N1Cc1ccccc1 , I see its TGI listed as > 100 µM

// field: TGI; key: O=C1OCC2=C1C(c1cccc(F)c1)c1cc3c(cc1N2CCO)OCO3 (stereo not drawn) ; value = > 50 µM

molecule CC(=O)NC1C(OCc2ccccc2)OC(CO)C(O)C1OCC(=O)N1CCCC1C(=O)N[C@@H](CCC(=O)NCCCCNc1c2ccccc2nc2cccc([N+](=O)[O-])c12)C(N)=O (stereo partly drawn) , TGI observed: > 100 µM

Item: COc1cc2c(c(O)c1O)C(=O)C1CCC(=O)N1C2c1cccc2ccccc12 (stereo not drawn) | TGI: > 50 µM

###

test system: DU-145 prostate; assay: NCI tumour cell line growth inhibition, 48 h
Provide the recorded TGI for the entries that follow.

CCSC1=NC2C(N(CC)C(=O)N2CC)N1/N=C/C=C/c1ccccc1[N+](=O)[O-] (stereo not drawn) has a reported TGI of > 100 µM

// TGI lookup, compound = COc1ccc(N2CC(=O)N(C(=O)COc3ccc(OCC(=O)N4C(=O)CN(c5ccc(OC)cc5)C4=S)cc3)C2=S)cc1 , result: > 100 µM

The reported TGI of the compound O=c1oc2ccccc2c2c1Sc1ccccc1N2 was > 100 µM

###

test system: OVCAR-4 ovarian; assay: NCI tumour cell line growth inhibition, 48 h
Hi there, I'd appreciate the recorded TGI for every entry that follows.

Entry O=C1C[C@H]2CCCN2[C@@H](c2ccccc2)C1 ; TGI = > 100 µM

compound COC(=O)Cc1cc(O)c2c(c1O)C(=O)c1ccccc1C2=O , TGI observed: > 100 µM

Note to self: TGI recorded for COC(=O)c1sc(C(=O)OC)c2c1CS(=O)C2 was > 100 µM

###

Please provide measured TGI for the entries that follow.
test system: MDA-MB-231 breast; assay: NCI tumour cell line growth inhibition, 48 h

The value of TGI measured for the molecule O=S1(=O)c2ccccc2Oc2ccc(C(/C=N/O)=N/O)cc21 turned out to be > 100 µM

Memo: CC(C)(C)c1ccccc1N1C(=O)c2ccc3c4c(ccc(c24)C1=O)N(c1ccccc1C(C)(C)C)C3=O , reported TGI: > 100 µM

Recorded TGI (molecule C=CCC1(C#N)C(=S)NC2=C(C(=O)CC(C)(C)C2)C1c1ccccc1 (stereo not drawn) ): > 100 µM

###

test system: HCC-2998 colon; test: NCI tumour cell line growth inhibition, 48 h
Would you kindly list TGI for each of these compounds?

TGI for CN(C)CC(O)c1ccc(Cl)c2ccccc12 (stereo not drawn) is 29.9 µM

Reported TGI of COc1ccc(N2CC(=O)N(C(=O)COc3ccc(OCC(=O)N4C(=O)CN(c5ccc(OC)cc5)C4=S)cc3)C2=S)cc1 : > 100 µM

The recorded TGI for O=C(NCC1CC1)c1ccc(-c2cccc(C(=O)NC3CC3)c2)cc1 is > 25 µM

The reported value for CC(=O)O[C@H]1CC(C)(C)C(=C=C/C(C)=C/C=C/C=C/C=C(C)/C=C2C=C(/C=C/[C@@]34O[C@]3(C)C[C@@H](O)CC4(C)C)C(=O)O/2)[C@](C)(O)C1 in terms of TGI is > 100 µM

Briefly, TGI measured for C=CCc1c(Cl)nc(Cl)nc1Cl : 3.4 µM

Item: CCSCCCSCCSCC | TGI: > 100 µM

Record CC1=C(C(=O)Nc2ccccc2C)C(c2ccc(Cl)cc2)C(C(=O)Nc2ccccc2C)=C(C)N1 . Reported TGI: > 100 µM

Per the records, this compound ( COc1cc(Cl)cc(=O)c(O)c1OC ) has TGI equal to > 100 µM

The compound listed as COc1cc(/C=C/C(=O)/C=C/c2cc(OC)c3c(c2)OCO3)cc2c1OCO2 has a reported TGI of 3.73 µM

Entry O=C1C2C3C=C4c5ccccc5N(c5ccccc5)C4(C2C(=O)N1c1ccccc1)C1C(=O)N(c2ccccc2)C(=O)C31 (stereo not drawn) ; TGI = > 100 µM

TGI reading for Cc1ccc(S(=O)(=O)SC/C=C\CSS(=O)(=O)c2ccc(C)cc2)cc1 : > 100 µM

Record summary for CCCCCOc1ccc(C=Nc2ccc(CCc3ccc(N=Cc4ccc(OCCCCC)cc4)cc3)cc2)cc1 : reported TGI = > 100 µM

compound Cc1cc2c(C)nn(Cc3ccccc3)c2c(C(=O)O)c1C , TGI observed: > 100 µM

Just so you know, measured TGI for N#C[Se]Cc1cc(-c2ccccc2)n(-c2ccc(S(N)(=O)=O)cc2)n1 came out at 4.94 µM

// CCOC(=O)NC(=O)c1cn(CCN2CCN(C(=O)NCCCCCCNC(=O)N3CCN(CCn4cc(C(=O)NC(=O)OCC)c(=O)[nH]c4=O)CC3)CC2)c(=O)[nH]c1=O : TGI value = > 100 µM

Recorded result, C=CCSC1=N/C(=C\c2ccc(Cl)cc2)C(=O)N1CC=C , TGI: > 100 µM

Looking up Oc1cc(Cc2ccccc2)c(Cc2ccccc2)cc1O , I see its TGI listed as > 10 µM

The measured TGI associated with CCc1cccc(C)c1NS(=O)(=O)c1ccccc1 reads > 100 µM

###

Assignment: determine reported TGI for the given compounds.
tested on: MCF7 breast; assay: NCI tumour cell line growth inhibition, 48 h
# unit: µM | format: bare number

So, COc1cccc(N2C(=O)CSC2c2cccc(Oc3ccccc3)c2)c1 (configuration not stated) ? Its TGI was 7.13

Form field TGI, entry CC(N=NNc1ccc(-c2nc3ccccc3[nH]2)cc1)C(=O)O (configuration not stated) : 34.1

What the record says about Fc1ccc(C(OCCN2CCN(CCCc3ccccc3)CC2)c2ccc(F)cc2)cc1 : TGI is 18.9

Documented TGI of CC1=C([Se]CC(OC(=O)CC[Se]c2ccccc2)C(=O)NC(C)(C)C)C(=O)c2ccccc2C1=O (configuration not stated) : 3.73

The compound listed as CC(=O)c1c(C(F)(F)F)n([O-])c2ccccc2[n+]1=O shows TGI equal to 4.08

// CC1CC(C)CC(C)C(O)/C(C#N)=C/C=C/CC(C2CCCC2C(=O)O)OC(=O)CC(O)C(C)C1 (configuration not stated) : TGI value = 0.0436

Sample Oc1cccc(Nc2nc3ccccc3c3occc23)c1 ; TGI observed: 21

###

test system: SK-MEL-28 melanoma; test: NCI tumour cell line growth inhibition, 48 h
Would you kindly list TGI for each of these compounds?

Per the records, this compound ( CN(C)c1cc2ccccc2oc1=O ) has TGI equal to > 100 µM

The compound listed as CC(=O)Nc1ccc(-c2cc(C(=O)O)c3cc4ccccc4cc3n2)cc1 has a reported TGI of > 100 µM

# TGI of O=c1oc2ccccc2c2c1Sc1ccccc1N2 = > 100 µM

Value of TGI reported for the compound O=C(O)c1nc(NCc2nc3cc(Cl)ccc3o2)n[nH]1 is > 100 µM

Memo: CC[O-].CC[O-].O=C([CH-]C(=O)c1ccccc1)CCCCCCCCC(=O)[CH-]C(=O)c1ccccc1.[Ti+4] , reported TGI: > 100 µM

For IC[P+]1(c2ccccc2)CCCC1 the compound record lists TGI as > 100 µM

###

tested on: LOX IMVI melanoma; experiment: NCI tumour cell line growth inhibition, 48 h
Metric name: TGI

TGI in this record for CC(N=NNc1ccc(-c2nc3ccccc3[nH]2)cc1)C(=O)O (centres undefined) : > 100 µM

Entry CN1CCN(C(=S)N(C)C(=O)c2ccco2)CC1 , TGI reported as > 100 µM

GET /value?item= CCCCCOc1ccc(C=Nc2ccc(CCc3ccc(N=Cc4ccc(OCCCCC)cc4)cc3)cc2)cc1 &field=TGI returns > 100 µM

So, FC(F)(F)c1cccc(-c2nc3nc(Cl)c(Cl)nc3[nH]2)c1 ? Its TGI was 13.1 µM

Just so you know, measured TGI for CN(C)CCNc1ccc2c(=O)n(CCN(C)C)c(=O)n3c4ccc(O)cc4c(=O)c1c23 came out at 0.217 µM

The compound N=C1C(=N)c2ccccc2-c2ccccc21.[Cl-].[Ru+2].c1ccc(-c2ccccn2)nc1.c1ccc(-c2ccccn2)nc1 showed TGI equal to > 100 µM

get_value(item= O=C(Nc1ccccc1F)c1cc2ccc(O)cc2oc1=Nc1cccc(F)c1 , readout=TGI) returns 22.9 µM

TGI recorded for this compound, O=C1c2cccc([N+](=O)[O-])c2C(=O)N1Cc1ccccc1 , is > 100 µM

The recorded TGI for entry CCSCCCSCCSCC equals > 100 µM

Values compiled from PubChem BioAssay (NCI).
